Overview of reported Ki across a group of molecules:
- target_entity: dopamine D4 receptor (Homo sapiens, UniProt P21917)
- Construct: expressed in transfected cells; host or cells: CHO (Chinese Hamster Ovary) cells, D4-CHO, crude membranes
- Sequence (P21917 1-419): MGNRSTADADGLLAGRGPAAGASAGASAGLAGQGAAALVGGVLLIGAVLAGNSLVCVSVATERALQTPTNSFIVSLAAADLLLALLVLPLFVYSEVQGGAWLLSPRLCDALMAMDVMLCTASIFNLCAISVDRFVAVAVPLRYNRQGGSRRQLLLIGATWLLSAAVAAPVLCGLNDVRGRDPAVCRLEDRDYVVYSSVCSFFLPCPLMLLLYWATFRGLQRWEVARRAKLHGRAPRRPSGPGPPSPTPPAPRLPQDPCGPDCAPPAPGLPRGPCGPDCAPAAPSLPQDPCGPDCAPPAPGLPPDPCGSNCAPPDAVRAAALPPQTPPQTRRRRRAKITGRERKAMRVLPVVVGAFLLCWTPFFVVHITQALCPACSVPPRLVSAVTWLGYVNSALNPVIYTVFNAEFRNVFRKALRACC
- protocol_summary: binding behaviour at the dopamine D4 receptor, [3H]-spiperone displacement in D4-CHO cell membranes
- condition_info: [3H]-spiperone 200 pM; crude membranes of D4-CHO cells; room temperature, 90 minutes, pH 7.4; non-specific binding with 1×10^-5 M (+)-butaclamol; read-out: Affinity to dopamine D4 receptors, Ki
- Procedure: The compounds were characterized by their binding behaviour at the D4 receptor. CHO cells (Chinese Hamster Ovary) were used in the test. Crude membranes were isolated by ultracentrifugation from D4 -CHO and D2 -CHO cells and were stored at -80° C. […] The unbound radioligand was removed by filtration through a GF/C glass filter and the bound radioactivity was determined by scintillation in a Packard TopCount. It was determined using :^3 H-spiperone. […]

Solved cases below.
line_notation: COc1ccccc1N1CCN(Cc2cnc(N)nc2N)CC1
Ki: 30 nM
--
line_notation: CCCc1ncc(CN2CCN(c3ccccc3OC)CC2)c(N)n1
Ki: 14 nM
--
line_notation: Cc1ncc(CN2CCN(c3ccc(Cl)cc3)CC2)c(N)n1
Ki: 33 nM
--
line_notation: Cc1ncc(CN2CCc3cc(-c4ccccc4)ccc3C2)c(N)n1
Ki: 0.4 nM
--
line_notation: Cc1ncc(CN2CCN(c3cccc(Cl)c3)CC2)c(N)n1
Ki: 28 nM
--
line_notation: Cc1ncc(CN2CC=C(CCc3ccccc3)CC2)c(N)n1
Ki: 1.3 nM
--
line_notation: Cc1ncc(CN2CCc3ccc(OCc4ccccc4)cc3C2)c(N)n1
Ki: 23 nM
--
line_notation: Cc1ncc(CN2CC=C(/C=C/c3ccccc3)CC2)c(N)n1
Ki: 0.9 nM

Now consider the entry below.
Name the recorded Ki of the molecule listed here: "Cc1ncc(CN2CCc3ccc(-c4ccccc4)cc3C2)c(N)n1"
6.2 nM

====

- target_entity: dopamine D4 receptor (Homo sapiens)
- Construct: expressed in transfected cells; host or cells: CHO (Chinese Hamster Ovary) cells, D4-CHO, crude membranes
- Sequence (P21917 1-419): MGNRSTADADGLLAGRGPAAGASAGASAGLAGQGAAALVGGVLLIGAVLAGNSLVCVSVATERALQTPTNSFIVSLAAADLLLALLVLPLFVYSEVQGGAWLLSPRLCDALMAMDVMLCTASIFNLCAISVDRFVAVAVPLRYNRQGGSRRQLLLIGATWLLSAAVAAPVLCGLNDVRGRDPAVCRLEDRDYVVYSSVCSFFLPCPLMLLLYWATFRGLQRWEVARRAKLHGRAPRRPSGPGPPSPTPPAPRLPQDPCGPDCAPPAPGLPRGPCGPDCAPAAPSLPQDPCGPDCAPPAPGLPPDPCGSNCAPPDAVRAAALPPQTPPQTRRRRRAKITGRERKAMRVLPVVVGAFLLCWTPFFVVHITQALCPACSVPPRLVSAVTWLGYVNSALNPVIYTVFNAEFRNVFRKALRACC
- protocol_summary: binding behaviour at the dopamine D4 receptor, [3H]-spiperone displacement in D4-CHO cell membranes
Below, each entry is listed with its recorded pKi.
Friendly reminder that pKi comes from taking -log10 of the concentration in mol/L.

As a guide, the following entries are already answered.
line_notation: Nc1ncc(CN2CC=C(c3ccccc3)CC2)c(N)n1
value_observed: 7.85

line_notation: Cc1ncc(CN2CC=C(c3ccc(F)cc3)CC2)c(N)n1
value_observed: 8.03

line_notation: Cc1ncc(CN2CC=C(c3ccc(Cl)cc3)CC2)c(N)n1
value_observed: 8.33

line_notation: Cc1ncc(CN2CC=C(c3ccccc3)CC2)c(N)n1
value_observed: 8.08

line_notation: COc1ccc(C2=CCN(Cc3cnc(C)nc3N)CC2)cc1
value_observed: 8.27

For dopamine D4 receptor (Homo sapiens), give the measured pKi of the entry "Cc1ncc(CN2CCC3=C(CCCC3)C2)c(N)n1"
8.11
